Species on record: Rattus norvegicus
Assay: Open TG-GATES - Regimen: Daily Repeat
Type: toxicity, organism-based, Sprague-Dawley
Parameters: regimen Daily Repeat, gender Male, age 6 weeks
Details: in vivo, po, 10 mg/kg, […], tissue Blood, route gavage, dose level Low, time 28 day
Each entry below carries its reported Fbg.
Measured property: Fbg (mg/dL)

INSERT INTO results (compound, measured_property, result) VALUES
  ('CC(C)OC(=O)C(C)(C)Oc1ccc(C(=O)c2ccc(Cl)cc2)cc1 [FENOFIBRATE]', 'Fbg', 267),
  ('CN(C)CCCN1c2ccccc2CCc2ccccc21', 'Fbg', 284.6),
  ('CC1=C(/C=C/C(C)=C/C=C/C(C)=C/CO)C(C)(C)CCC1', 'Fbg', 330),
  ('CN(C)CCN(Cc1cccs1)c1ccccn1', 'Fbg', 307.8);

----------
Species: Rattus norvegicus
Assay: Open TG-GATES - Regimen: Single
Assay type: toxicity, organism-based, Sprague-Dawley
Parameters: regimen Single, gender Male, age 6 weeks
Conditions: in vivo, po, 100 mg/kg, 3 h, tissue Blood, route gavage, dose level High
Measured property: Ret (%)

INSERT INTO results (structure_smiles_string, measured_property, result) VALUES
  ('CC1=C(/C=C/C(C)=C/C=C/C(C)=C/CO)C(C)(C)CCC1', 'Ret', 8),
  ('CN(C)CCCN1c2ccccc2CCc2ccc(Cl)cc21', 'Ret', 8),
  ('CN(C)CCN(Cc1cccs1)c1ccccn1', 'Ret', 7.2),
  ('CN(C)CCCN1c2ccccc2CCc2ccccc21', 'Ret', 8.6);

----------
Species on record: Rattus norvegicus
Test: Open TG-GATES - Regimen: Daily Repeat
Assay type: toxicity, organism-based, Sprague-Dawley
Parameters: regimen Daily Repeat, gender Male, age 6 weeks
Conditions: in vivo, po, 1000 mg/kg, 72 h, tissue Blood, route gavage, dose level High, time 3 day
Measured property: Mono (%)

INSERT INTO results (molecule, measured_property, display_unit, result) VALUES
  ('COc1ccc2[nH]c([S+]([O-])Cc3ncc(C)c(OC)c3C)nc2c1 (stereo unspecified)', 'Mono', '%', 3.8),
  ('CC(C)OC(=O)C(C)(C)Oc1ccc(C(=O)c2ccc(Cl)cc2)cc1 [FENOFIBRATE]', 'Mono', '%', 3.6),
  ('NC(N)=Nc1nc(CSCCC(N)=NS(N)(=O)=O)cs1', 'Mono', '%', 2.6),
  ('CCOc1ccc(NC(=O)CC(C)O)cc1 (stereo unspecified)', 'Mono', '%', 2.8),
  ('COC1=CC(=O)C[C@@H](C)[C@]12Oc1c(Cl)c(OC)cc(OC)c1C2=O', 'Mono', '%', 2.4),
  ('CCOC(=O)CCC(=O)O[C@H]1[C@H](O[C@@H]2[C@@H](C)[C@H](O[C@H]3C[C@@](C)(OC)[C@@H](O)[C@H](C)O3)[C@@H](C)C(=O)O[C@H](CC)[C@@](C)(O)[C@H](O)[C@@H](C)C(=O)[C@H](C)C[C@@]2(C)O)O[C@H](C)C[C@@H]1N(C)C [ERYTHROMYCIN ETHYLSUCCINATE]', 'Mono', '%', 3);

----------
Each entry below carries its reported MCHC.
Organism: Rattus norvegicus
Experiment: Open TG-GATES - Regimen: Single
Assay type: toxicity, organism-based, Sprague-Dawley
Set-up: regimen Single, gender Male, age 6 weeks
Conditions: in vivo, po, 0 mg/kg, 24 h, tissue Blood, route gavage, dose level Control
Measured property: MCHC (%)

INSERT INTO results (compound, measured_property, display_unit, result) VALUES
  ('NNC(=O)c1ccncc1', 'MCHC', '%', 36.2),
  ('CN1C(=O)CN=C(c2ccccc2)c2cc(Cl)ccc21', 'MCHC', '%', 33.4),
  ('CCOC(=O)CCC(=O)O[C@H]1[C@H](O[C@@H]2[C@@H](C)[C@H](O[C@H]3C[C@@](C)(OC)[C@@H](O)[C@H](C)O3)[C@@H](C)C(=O)O[C@H](CC)[C@@](C)(O)[C@H](O)[C@@H](C)C(=O)[C@H](C)C[C@@]2(C)O)O[C@H](C)C[C@@H]1N(C)C [ERYTHROMYCIN ETHYLSUCCINATE]', 'MCHC', '%', 33.4),
  ('CN(C)CCN(Cc1cccs1)c1ccccn1', 'MCHC', '%', 33),
  ('CC1=C(/C=C/C(C)=C/C=C/C(C)=C/CO)C(C)(C)CCC1', 'MCHC', '%', 34.8),
  ('CCOc1ccc(NC(=O)CC(C)O)cc1 (stereo not drawn)', 'MCHC', '%', 33),
  ('COc1cc2c(c(OC)c1OC)-c1ccc(OC)c(=O)cc1[C@@H](NC(C)=O)CC2', 'MCHC', '%', 33.1),
  ('COC1=CC(=O)C[C@@H](C)[C@]12Oc1c(Cl)c(OC)cc(OC)c1C2=O', 'MCHC', '%', 33);

----------
Species on record: Rattus norvegicus
Test: Open TG-GATES - Regimen: Single
Format: toxicity, organism-based, Sprague-Dawley
Set-up: regimen Single, gender Male, age 6 weeks
Settings: in vivo, po, 1000 mg/kg, 9 h, tissue Blood, route gavage, dose level High
Each entry below carries its reported Lym.
Measured property: Lym (%)

INSERT INTO measurements (compound, display_unit, result) VALUES
  ('COc1ccc2[nH]c([S+]([O-])Cc3ncc(C)c(OC)c3C)nc2c1 (centres undefined) [OMEPRAZOLE]', '%', 75.8),
  ('NC(N)=Nc1nc(CSCCC(N)=NS(N)(=O)=O)cs1 [FAMOTIDINE]', '%', 78),
  ('CCOC(=O)CCC(=O)O[C@H]1[C@H](O[C@@H]2[C@@H](C)[C@H](O[C@H]3C[C@@](C)(OC)[C@@H](O)[C@H](C)O3)[C@@H](C)C(=O)O[C@H](CC)[C@@](C)(O)[C@H](O)[C@@H](C)C(=O)[C@H](C)C[C@@]2(C)O)O[C@H](C)C[C@@H]1N(C)C [ERYTHROMYCIN ETHYLSUCCINATE]', '%', 76.2),
  ('COC1=CC(=O)C[C@@H](C)[C@]12Oc1c(Cl)c(OC)cc(OC)c1C2=O [GRISEOFULVIN]', '%', 75.2);

----------
Species on record: Rattus norvegicus
Experiment: Open TG-GATES - Regimen: Single
Type: toxicity, organism-based, Sprague-Dawley
Parameters: regimen Single, gender Male, age 6 weeks
Conditions: in vivo, po, 100 mg/kg, 24 h, tissue Liver, route gavage, dose level High
Each entry below carries its reported LIVER.
Measured property: LIVER (g)

INSERT INTO results (structure_smiles_string, result) VALUES
  ('CN(C)CCCN1c2ccccc2CCc2ccccc21', 8.1),
  ('CN(C)CCN(Cc1cccs1)c1ccccn1', 9.1),
  ('CC1=C(/C=C/C(C)=C/C=C/C(C)=C/CO)C(C)(C)CCC1', 9.6),
  ('CN(C)CCCN1c2ccccc2CCc2ccc(Cl)cc21', 9.6);

----------
Each entry below carries its reported MCHC.
Species: Rattus norvegicus
Experiment: Open TG-GATES - Regimen: Daily Repeat
Assay type: toxicity, organism-based, Sprague-Dawley
Parameters: regimen Daily Repeat, gender Male, age 6 weeks
Settings: in vivo, po, 0 mg/kg, 72 h, tissue Blood, route gavage, dose level Control, time 3 day
Measured property: MCHC (%)

INSERT INTO measurements (molecule, result) VALUES
  ('CN(C)CCCN1c2ccccc2CCc2ccccc21 [IMIPRAMINE]', 32.6),
  ('NC(N)=Nc1nc(CSCCC(N)=NS(N)(=O)=O)cs1 [FAMOTIDINE]', 36.1),
  ('NNC(=O)c1ccncc1 [ISONIAZID]', 33.2),
  ('COC1=CC(=O)C[C@@H](C)[C@]12Oc1c(Cl)c(OC)cc(OC)c1C2=O [GRISEOFULVIN]', 33.6),
  ('CCCNC(=O)NS(=O)(=O)c1ccc(Cl)cc1 [CHLORPROPAMIDE]', 32.8),
  ('CN1C(=O)CN=C(c2ccccc2)c2cc(Cl)ccc21 [DIAZEPAM]', 33.2),
  ('COc1ccc2[nH]c([S+]([O-])Cc3ncc(C)c(OC)c3C)nc2c1 (stereo not given) [OMEPRAZOLE]', 34.4),
  ('CC1=C(/C=C/C(C)=C/C=C/C(C)=C/CO)C(C)(C)CCC1 [RETINOL]', 34.4),
  ('CC(C)OC(=O)C(C)(C)Oc1ccc(C(=O)c2ccc(Cl)cc2)cc1 [FENOFIBRATE]', 33),
  ('CN(C)CCN(Cc1cccs1)c1ccccn1', 33.4);

----------
Each entry below carries its reported K.
Species: Rattus norvegicus
Test: Open TG-GATES - Regimen: Single
Format: toxicity, organism-based, Sprague-Dawley
Set-up: regimen Single, gender Male, age 6 weeks
Settings: in vivo, po, 100 mg/kg, 24 h, tissue Plasma, route gavage, dose level High
Measured property: K (meq/L)

INSERT INTO measurements (structure_smiles_string, measured_property, result) VALUES
  ('CC1=C(/C=C/C(C)=C/C=C/C(C)=C/CO)C(C)(C)CCC1', 'K', 4),
  ('CN(C)CCCN1c2ccccc2CCc2ccc(Cl)cc21', 'K', 4),
  ('CN(C)CCCN1c2ccccc2CCc2ccccc21', 'K', 4.5),
  ('CN(C)CCN(Cc1cccs1)c1ccccn1', 'K', 4.4);

Cited source: ChEMBL document CHEMBL3885861
